Compiled literature IC50, tested on the protein given by its sequence.
Target sequence: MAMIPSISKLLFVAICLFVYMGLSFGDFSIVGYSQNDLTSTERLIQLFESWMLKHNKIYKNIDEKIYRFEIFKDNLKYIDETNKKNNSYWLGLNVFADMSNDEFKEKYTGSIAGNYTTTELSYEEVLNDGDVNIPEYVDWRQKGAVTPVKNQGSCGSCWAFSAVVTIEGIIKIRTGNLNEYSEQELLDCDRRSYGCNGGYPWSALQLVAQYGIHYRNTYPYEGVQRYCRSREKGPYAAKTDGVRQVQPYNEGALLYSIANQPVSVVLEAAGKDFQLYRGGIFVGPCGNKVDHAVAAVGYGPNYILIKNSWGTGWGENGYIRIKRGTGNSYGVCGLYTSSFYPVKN
Measure Name: IC50 (nM)

CC(=O)Oc1ccc(C2Oc3cc(OC(C)=O)cc(O)c3C(=O)C2c2c(OC(C)=O)cc(O)c3c(=O)cc(-c4ccc(OC(C)=O)c(OC(C)=O)c4)oc23)cc1 (racemic) | 600
COc1ccc(C2Oc3cc(OC)cc(O)c3C(=O)C2c2c(OC)cc(O)c3c(=O)cc(-c4ccc(OC)c(OC)c4)oc23)cc1 (racemic) | 15400
CN1CCN(C(=O)N[C@@H](Cc2ccccc2)C(=O)N[C@@H](CCc2ccccc2)CSS(=O)(=O)c2ccc([N+](=O)[O-])cc2)CC1.O=C(O)C(F)(F)F | 186
CCNc1nc(C#N)nc2c1ncn2-c1cc(F)cc(F)c1 | 33.1

====

Compiled literature log10(IC50), tested on Papain (Carica papaya, UniProt P00784).
Measure Name: log10(IC50) (log10 of the value in nM)

N#CCNC(=O)[C@H](Cc1ccccc1)NC(=O)[C@H](Cc1ccccc1)NC(=O)CN=[N+]=[N-] | 3.60
Cc1ccc(S(=O)(=O)SC[C@H](CCc2ccccc2)NC(=O)[C@H](Cc2ccccc2)NC(=O)N2CCN(C)CC2)cc1 | 2.26
CC(C)C[C@H](NC(=O)c1ccc(CN=[N+]=[N-])cc1)C(=O)NCC#N | 3.36
CC(C)COC(=O)N[C@@H](Cc1ccccc1)C(=O)N[C@H](C=O)CCCNC(=N)N | 2.11
CC(C)C[C@H](NC(=O)[C@H]1O[C@@H]1C(=O)O)C(=O)NCCCCN=C(N)N | 1.67
COc1ccc(S(=O)(=O)SC[C@H](CCc2ccccc2)NC(=O)[C@H](Cc2ccccc2)NC(=O)N2CCN(C)CC2)cc1.O=C(O)C(F)(F)F | 2.17
N#CCNC(=O)[C@H](Cc1ccccc1)NC(=O)c1ccc(CN=[N+]=[N-])cc1 | 2.43
N#CCNC(=O)[C@H](CCc1ccc(O)cc1)NC(=O)c1ccc(CN=[N+]=[N-])cc1 | 2.99
O=C1c2c(O)cc(O)cc2OC(c2ccc(O)cc2)C1c1c(O)cc(O)c2c(=O)cc(-c3ccc(O)c(O)c3)oc12 (racemic) | 4.02
CC(C)[C@H](NC(=O)[C@@H](NC(=O)N[C@@H](Cc1ccc(O)cc1)C(=O)O)[C@H]1CCNC(=N)N1)C(=O)N[C@H](C=O)Cc1ccc(O)cc1 | 0.80

====

Compiled literature pIC50, tested on Papain (Carica papaya, UniProt P00784).
pIC50: −log10 of the molar value.
Measure Name: pIC50

CC(C)C[C@H](NC(=O)OCc1ccccc1)C(=O)NN(CCc1ccccc1)C(=O)/C=C/S(=O)(=O)c1ccccc1 | < 4.30
CCOP(=O)(/C=C/C(NC(=O)[C@H](CC(C)C)NC(=O)OCc1ccccc1)c1ccccc1)OCC (mixture of isomers) | < 3.70
CN(C)c1cccc2c(S(=O)(=O)N(C)CC(=O)N(Cc3ccc(C4CCCCC4)cc3)c3ccc(C(=O)O)c(O)c3)cccc12 | < 5.00
